- assay-text: in vitro
- measurement-context: human, Caco-2, pH 7.4, Percentage recovery A→B, apical to basolateral
observation-type: recovery at 2 h, 5 µM (%)

- CN(C)CCc1c[nH]c2cccc(OC(=O)CCCC(=O)Oc3cccc4[nH]cc(CCN(C)C)c34)c12: 112

* * *

- assay-text: Human plasma stability
- measurement-context: human, plasma
Counter-ions that a name gives are not always drawn.
observation-type: remaining at 4 h

- CC(C)N(CCc1c[nH]c2cccc(OC(=O)CCCC(=O)Oc3cccc4[nH]cc(CCN(C(C)C)C(C)C)c34)c12)C(C)C [Compound I-37, dihydrochloride]: 0%
- CC(C)[N+](C)(CCOC(=O)C1c2ccccc2Oc2ccccc21)C(C)C [Propantheline, reference compound]: 0%
